Hello, the source for this data is ChEMBL document CHEMBL3612009, in case you need it.

For each record, write down the corresponding CC50 at 96 h.
experiment: Cytotoxicity against mouse L929 cells assessed as cell viability after 96 hrs by alamarBlue assay; format: cell-based
Report as a plain number; the unit µM is understood.

Q. Tell me the measured CC50 at 96 h of NC(=S)N/N=C(/COc1ccc(Br)cc1)c1ccc(Br)cc1 , please.
A. 22.6

Q. Tell me the measured CC50 at 96 h of COc1ccc(OC/C(=N\NC(N)=S)c2ccc(Br)cc2)cc1 , please.
A. 102

Q. Tell me the measured CC50 at 96 h of NC(=S)N/N=C(\COc1ccccc1Cl)c1ccc(Br)cc1 , please.
A. 25.1

Q. Tell me the measured CC50 at 96 h of CC(C)(C)c1ccc(OC/C(=N\NC(N)=S)c2ccc(Br)cc2)cc1 , please.
A. 23.8

Q. Tell me the measured CC50 at 96 h of COc1cccc(OC/C(=N\NC(N)=S)c2ccc(Br)cc2)c1 , please.
A. 50.7

Q. Tell me the measured CC50 at 96 h of CC(C)c1ccc(OC/C(=N\NC(N)=S)c2ccc(Br)cc2)cc1 , please.
A. 24.6

Q. Tell me the measured CC50 at 96 h of NC(=S)N/N=C(\COc1ccc(Cl)c(Cl)c1)c1ccc(Br)cc1 , please.
A. 23.1

Q. Tell me the measured CC50 at 96 h of NC(=S)N/N=C(/COc1ccc(Br)cc1)c1cccc2ccccc12 , please.
A. 12.1

Q. Tell me the measured CC50 at 96 h of NC(=S)N/N=C(/COc1ccc(Br)cc1)c1ccc(-c2ccccc2)cc1 , please.
A. 22.7

Q. Tell me the measured CC50 at 96 h of NC(=S)N/N=C(\COc1ccccc1)c1ccc(Br)cc1 , please.
A. 54.9

Q. Tell me the measured CC50 at 96 h of CC(=O)Nc1ccc(OC/C(=N\NC(N)=S)c2ccc(Br)cc2)cc1 , please.
A. 94.9

Q. Tell me the measured CC50 at 96 h of NC(=S)N/N=C(\COc1ccc(F)cc1)c1ccc(Br)cc1 , please.
A. 52.3

Q. Tell me the measured CC50 at 96 h of Cc1ccc(/C(COc2ccc(Br)cc2)=N\NC(N)=S)cc1 , please.
A. 13.2

Q. Tell me the measured CC50 at 96 h of NC(=S)N/N=C(\COc1cccc(Cl)c1Cl)c1ccc(Br)cc1 , please.
A. 23.1

Q. Tell me the measured CC50 at 96 h of NC(=S)N/N=C(/COc1ccc(Br)cc1)c1ccc(Cl)cc1 , please.
A. 25.1

###

For each record, write down the corresponding MNTC at 24 h.
experiment: Cytotoxicity against BALB/c mouse splenocytes assessed as maximum non-toxic concentration by measuring [3H]-thymidine incorporation after 24 hrs by liquid scintillation counting; assay type: cell-based, Splenocyte

Q. Tell me the measured MNTC at 24 h of NC(=S)N/N=C(/COc1ccc(Br)cc1)c1ccc(Cl)cc1 , please.
A. 12500 nM

Q. Tell me the measured MNTC at 24 h of NC(=S)N/N=C(\COc1ccc2ccccc2c1)c1ccc(Br)cc1 , please.
A. 2400 nM

Q. Tell me the measured MNTC at 24 h of NC(=S)N/N=C(\COc1cccc(-c2ccccc2)c1)c1ccc(Br)cc1 , please.
A. 2300 nM

Q. Tell me the measured MNTC at 24 h of NC(=S)N/N=C(\COc1ccc(-c2ccccc2)cc1)c1ccc(Br)cc1 , please.
A. 22700 nM

Q. Tell me the measured MNTC at 24 h of CC(C)(C)c1ccc(OC/C(=N\NC(N)=S)c2ccc(Br)cc2)cc1 , please.
A. 2400 nM

Q. Tell me the measured MNTC at 24 h of CC(C)c1ccc(OC/C(=N\NC(N)=S)c2ccc(Br)cc2)cc1 , please.
A. > 246000 nM
